In this section we review reported T/C values for a set of compounds.
Tested on: P388 leukemia ip, CD2F1 mice, survival T/C
Experiment summary: NCI In Vivo Anticancer Drug Screen. Data for tumor model P388 Leukemia (intraperitoneal) in CD2F1 (CDF1) mice
Experimental setup: endpoint: median survival time; dose: 200.0 mg/kg/injection; schedule: Q01DX005 (ip); vehicle: Klucel (hydroxypropylcellulose) (HPC); higher = longer survival
Toxic doses and inconclusive results are not listed.

Look over these answered cases.
O=C1c2c(-c3ccccc3)ccc(-c3ccccc3)c2C2(O)OC1(O)c1c(-c3ccccc3)ccc(-c3ccccc3)c1C2=O | 92 % of control
CC(C)=CCN1CCC2(C)c3cc(O)ccc3CCC2C1 (stereo not given) | 94 % of control
COc1ccc(C2(c3ccccc3)c3ccccc3C(=O)c3ccccc32)cc1 | 99 % of control

Which T/C is listed for COc1cc(CCC(C)=O)ccc1OC(=O)c1c(-c2c(F)cccc2Cl)noc1C ? 91 % of control

Please answer likewise for Cc1oc2c(c(C)nn2-c2ccccc2)c(=O)c1Cl 108 % of control

Please answer likewise for Nc1cc(O)c(O)c2c1C(=O)c1c(O)c(O)cc(N)c1C2=O 99 % of control

Please answer likewise for OC1c2ccccc2-c2nc3ccccc3cc21 (stereo not given) 107 % of control
